# GI50 per entry
# Test system: HCT-116 colon

# example entries with known answers
Cc1cc(=O)oc2cc(OC/C=C3\CCC(=O)O3)ccc12 ... 8380 nM
[CH3][Sn]([CH3])([CH3])[O][N+](=O)[O-] ... 2900 nM

// next entry
IN: What measured GI50 is associated with "CSc1ccc(C(=O)/C=C/c2ccccc2Cl)cc1" on HCT-116 colon?
OUT: 2080 nM

----------
# Tested on: LOX IMVI melanoma
# TEST: NCI tumour cell line growth inhibition, 48 h; in the data active = GI50 below about 0.43 µM; inactive = the rest
Output constraint: value belongs to y for active, n for inactive

CCCCCC[C@H](C)NC(=O)c1ccc(Nc2nc3ccccc3c3occc23)cc1 ... n
Cn1c2ccccc2c2c(=O)n(CCCC(=O)OC(=NC3CCCCC3)NC3CCCCC3)c3c(-c4ccccc4)nnn3c21 ... n
[CH3][Sn]([CH3])([CH3])[O][N+](=O)[O-] ... n
C[CH2][Sn]([CH2]C)([O]C(=O)c1ccc(OC)c(OC)c1OC)[O]C(=O)c1ccc(OC)c(OC)c1OC ... n
C=C1C(=O)O[C@H]2[C@H]1CC/C(COC(=O)NCCCCCCCCNC(=O)OC/C1=C/CC[C@@]3(C)O[C@H]3[C@H]3OC(=O)C(=C)[C@@H]3CC1)=C\CC[C@@]1(C)O[C@@H]21 ... y

IN: Assay result, entry "COc1ccc(OC)c(/C=C/c2nc(SCc3ccccc3)n(-c3ccc(Cl)cc3)n2)c1" — outcome?
OUT: n

IN: Assay result, entry "C1C[OH+]CC[OH+]CCNCC[OH+]CC[OH+]CCN1.Cl.[Cl-].[Pt+4]" — outcome?
OUT: n

IN: Assay result, entry "COc1ccc(/C=C2\c3cc(OC)c(OC)c(OC)c3CC[C@@H]2O)cc1F" — outcome?
OUT: y

----------
# System: T-47D breast
# TEST: NCI tumour cell line growth inhibition, 48 h; in the data active means GI50 below about 0.43 µM; inactive means the rest
Output constraint: value belongs to active, inactive

Sample answers from the record:
COc1cc(/C=C/C(=O)c2c(C)nc3ccccc3c2C)ccc1OCCCN1CCN(C(=O)c2ccco2)CC1 ... inactive
COc1ccc(OC)c(/C=C/c2nc(SCc3ccccc3)n(-c3ccc(Cl)cc3)n2)c1 ... inactive
C#Cc1cccc(NC(=O)c2ccc(NC(=O)CCl)cc2)c1 ... inactive
CCn1ccc(NS(=O)(=O)c2ccc(N)cc2)nc1=O ... inactive
FC(F)(F)c1cc(Nc2ccc3cc(OCCCN4CCOCC4)ccc3n2)ccc1Cl ... inactive

Turning now to a further compound:
IN: Assay result, entry Cc1ccc(OCC2OC(n3cnc4c(Br)nc(Br)nc43)CC2Oc2ccc(C)cc2)cc1 (stereo not given) — outcome?
OUT: inactive

----------
# Tested on: MALME-3M melanoma
# TEST: NCI tumour cell line growth inhibition, 48 h
Lab note: anything with TGI at or over 20 µM counts as Fulfilled; the rest go in Not fulfilled.

Sample answers from the record:
Cc1ccc(S(=O)(=O)Nc2ccc(-c3cc(-c4cccc(F)c4)c(C#N)c(N)n3)cc2)cc1 ... Not fulfilled
COc1cccc(/C=C\c2ccc(O)cc2)c1 ... Fulfilled
CCCC(=O)NC(Nc1ccc(S(=O)(=O)Nc2ccc(OC)nn2)cc1)(C(F)(F)F)C(F)(F)F ... Fulfilled

IN: Threshold query (TGI >= 20 µM) on O=C1NC(c2cccc(OCc3ccccc3)c2)Nc2ccccc21 (stereo not given)
OUT: Fulfilled

IN: Threshold query (TGI >= 20 µM) on "O=c1c(Cl)cc2nc3ccccc3sc-2c1Cl"
OUT: Fulfilled

IN: Threshold query (TGI >= 20 µM) on "Cc1c(F)c(NC(=O)CN(C)C)c2c(=O)cc(-c3ccc(NC(=O)CN(C)C)c(F)c3)oc2c1F"
OUT: Fulfilled

IN: Threshold query (TGI >= 20 µM) on Cc1cc(Cl)ccc1NC(=O)C(=O)C(C(=O)c1ccccc1)C1OC(=O)c2ccccc21 (stereo not given)
OUT: Fulfilled

IN: Threshold query (TGI >= 20 µM) on "Cc1nccc2c3ccc(OCc4cn(-c5ccc(Cl)cc5)nn4)cc3n(CC(C)C)c12"
OUT: Not fulfilled
